target: human 5-HT5A receptor (Homo sapiens, UniProt P47898)
Sequence (P47898 whole entry): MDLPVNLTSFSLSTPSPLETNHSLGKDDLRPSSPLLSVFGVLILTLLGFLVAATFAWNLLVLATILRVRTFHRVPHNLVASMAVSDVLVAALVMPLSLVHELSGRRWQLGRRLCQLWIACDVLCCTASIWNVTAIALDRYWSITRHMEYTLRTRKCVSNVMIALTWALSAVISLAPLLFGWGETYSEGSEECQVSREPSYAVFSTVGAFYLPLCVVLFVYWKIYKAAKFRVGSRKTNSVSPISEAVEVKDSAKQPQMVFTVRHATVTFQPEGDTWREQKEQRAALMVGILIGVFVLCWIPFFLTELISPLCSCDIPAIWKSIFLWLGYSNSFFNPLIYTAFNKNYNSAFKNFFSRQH
pKi: −log10 of the molar value. Where a name gives a salt, the structure may show the parent alone.
MEASURE_NAME: pKi

Worked cases, answers included:
In: # get_value(readout= pKi, system= human 5-HT5A receptor (Homo sapiens, UniProt P47898)) for COc1ccccc1C1=CCSc2ccc(C(=O)N=C(N)N)cc21
Out: 6.52 to 7.52

In: Query the reported pKi for human 5-HT5A receptor (Homo sapiens, UniProt P47898); item: COc1ccccc1-c1c(C#N)sc2ccc(C(=O)N=C(N)N)cc12
Out: 7.52 to 8.52

In: Query the reported pKi for human 5-HT5A receptor (Homo sapiens, UniProt P47898); item: CC1C=C(c2ccc(Cl)nc2Cl)c2cc(C(=O)N=C(N)N)ccc2O1 (stereo not drawn)
Out: 6.52 to 7.52

Next:
In: Lab note: need pKi for COc1cc(F)cc(F)c1C1=CCCc2ccc(C(=O)N=C(N)N)cc21 on human 5-HT5A receptor (Homo sapiens, UniProt P47898), anyone have it?
Out: 7.52 to 8.52

In: # get_value(readout= pKi, system= human 5-HT5A receptor (Homo sapiens, UniProt P47898)) for NC(N)=NC(=O)c1ccc2c(c1)C(c1cccc(Cl)c1F)=CCC2
Out: 8.52 to 9.52

In: Can you look up pKi on human 5-HT5A receptor (Homo sapiens, UniProt P47898) for NC(N)=NC(=O)c1ccc2c(c1)C(c1ccco1)=CCC2 ?
Out: 7.52 to 8.52

In: Reported pKi for human 5-HT5A receptor (Homo sapiens, UniProt P47898), given CN(C)Cc1ccccc1C1=CCCc2ccc(C(=O)N=C(N)N)cc21 ?
Out: 6.52 to 7.52

In: Query the reported pKi for human 5-HT5A receptor (Homo sapiens, UniProt P47898); item: NC(N)=NC(=O)c1ccc2c(c1)C(N1CCNCC1)CCC2 (stereo not drawn) [Example 3-01, trihydrochloride]
Out: 6.52 to 7.52

In: Param readout= pKi; system= human 5-HT5A receptor (Homo sapiens, UniProt P47898); entry= CC1C=C(c2ccsc2)c2cc(C(=O)N=C(N)N)ccc2O1 (stereo not drawn) ; returns value.
Out: 7.52 to 8.52
